Assay: soluble on expression in E. coli; label from the status in PepcDB or PDB records

| residueString | soluble on expression in E. coli |
| --- | --- |
| EKAVLIGEKEADITFVTWGSQKGPILDVIEDLKEEGISANLLYLKMFSPFPTEFVKNVLSSANLVIDVESNYTAQAAQMIKLYTGIDIKNKILKYNGRHMTEDEILKSAKEILNKESLMVVLEDGS | not soluble |
| AGKATANAPTDAAITAASDFAALEKACAGRLGVTLLDTASGRRIGHRQDERFPMCSTFKSMLAATVLSQAERMPALLDRRVPVGEADLLSHAPVTRRHAGKDMTVRDLCRATIITSDNTAANLLFGVVGGPPAVTAFLRASGDTVSRSDRLEPELNSFAKGDPRDTTTPAAMAATLQRVVLGEVLQPASRQQLADWLIDNETGDACLRAGLGKRWRVGDKTGSNGEDARNDIAVLWPVAGGAPWVLTAYLQAGAISYEQRASVLAQVGRIADRLIG | soluble |
| SELRPSGDSGSSDVDAEISDGFSPLDTSHRDVADEGSLLRRAEMYQDYMKQVPIPTNRGSLIPFTSWVGLSISMKQLYGQPLHYLTNVLLQRWDQSRFGTDSEEQRLDSIIHPTKAEATIWLVEEIHRLTPSHLHMALLWRSDPMYHSFIDPIFPEK | soluble |
| MLKADYIPYTLKFKEPAGTSRGVLHTKQTYFVRVYDDTFPSRAGYGEAALFRGLSAEEGADYEERLAEVCNGVCGFTPDAWQAYPSLCFGMETALADFEGGGLLFPSAFTSGEAGIPINGLI | not soluble |

###

Assay: soluble on expression in E. coli; label from the status in PepcDB or PDB records
propertyLabel: soluble on expression in E. coli

| residueString | propertyLabel | reportedResult |
| --- | --- | --- |
| MKVYYPGREWPEEYKRVLEKMKEIIDPVTGDNILDSGVVAGLEVKDRTLKVWLRFESQAEYNILGGAAMAYSKIVGDIMEKFALVMFDNVYVYDLRNNIVGVFEKKK | soluble on expression in E. coli | soluble |
| MGSSHHHHHHSSGLVPRGSVCMTEIATTSGARSVGLLSVGAYRPERVVTNDEICQHIDSSDEWIYTATGIKTRRFAADDESAASMATEACRRALSNAGLSAADIDGVIVTTNTHFLQTPPAAPMVAASLGAKGILGFDLSAGCAGFGYALGAAADMIRGGGAATMLVVGTEKLSPTIDMYDAGNCFIFADGAAAVVVGETPFQGIGPTVAGSDGEQADAIRQDIDWITFAQNPSGPRPFVRLEGPAVFRWAAFKMGDVGRRAMDAAGVRPDQIDVFVPHQANSRINELLVKNLQLRPDAVVANDIEHTGNTSAASIPLAMAELLTTGAAKPGDLALLIGYGAGLSYAAQVVRMPKG | soluble on expression in E. coli | soluble |
| MTEMELKLIKIDTSHYFEKKPGLGERVDYAGRCFYNKFQRVNAMLTSSLIQKHLKREIEIAHNLILRNDKVENIVFDYNGRNPERFYHKAQLLLREEGFMNFTAYNTKTPGHLHLYVHKGHTELGEGERLVKTLSMKLAQGLPKEWKVFPSNEWPKEFNILALPYEVFAKERGSSWAKHL | soluble on expression in E. coli | soluble |

###

Assay: soluble on expression in E. coli; label from the status in PepcDB or PDB records

| residueString | soluble on expression in E. coli |
| --- | --- |
| GMELTALDKLEIMELAARFEMSLDKEDVENYLATFASDGALQGFWGIAKGKEELRQGFYAMLDTFARGKRHCSSNAIIQGNYDEATMESYLTVVNREDLNRAGSAFVKDQVRKINGKWYLILRQIEVDPSLPLLQQSQQAGANA | soluble |
| MGSDKIHHHHHHMLHFKHSSVINATPEVVWKFHERPDILQLLNPPWQPVQVVRREGGLNVGAITEFRLFLGPLPLTWLARHTECDKYRLFTDEQISGPFESWVHRHEFEPEAGKTRLTDAISFSMPGGETVEFVSGWLVQVQLEAMFRYRHYVTKRECESQ | not soluble |
| GGGGGGMADLFSTVQEKVAGKDVKIVFPEGLDERILEAVSKLAGNKVLNPIVIGNENEIQAKAKELNLTLGGVKIYDPHTYEGMEDLVQAFVERRKGKATEEQARKALLDENYFGTMLVYKGLADGLVSGAAHSTADTVRPALQIIKTKEGVKKTSGVFIMARGEEQYVFADCAINIAPDSQDLAEIAIESANTAKMFDIEPRVAMLSFSTKGSAKSDETEKVADAVKIAKEKAPELTLDGEFQFDAAFVPSVAEKKAPDSEIKGDANVFVFPSLEAGNIGYKIAQRLGNFEAVGPILQGLNMPVNDLSRGCNAEDVYNLALITAAQAL | soluble |
| HGTSDATLLKGVGHLYGTALPVGGLGTRSVLTAHSGIQKSTFFDNLEKVKKGDAIYVRNIGETLKYQVRDIEIIRPAEIDRIQPIPDRDLITLVTCTPYGINTHRLLVTAERVPMEPGEADRAFAGDGIVWQWWMK | not soluble |

The measured values listed here are drawn from the DeepSol protein solubility set.
